Literature-derived IC50 for human ACC2 (Homo sapiens (Human), UniProt O00763) follows.
Each entry falls into one class according to its IC50; the ranges are zone 1 (below 300 nM), zone 2 (300 nM to below 600 nM), zone 3 (600 nM or more)

CC(=O)NC(C)Cc1ccc(C#Cc2cnc(NC(C)C)nc2)cc1 (centres unmarked)    zone 1
COCCNc1nccc(N2CC[C@@H](Oc3ccc([C@H](C)NC(C)=O)cc3)C2)c1F    zone 3
CC(=O)N[C@@H](C)c1ccc(OC2CCN(c3ccc(OCCC(F)F)cc3)C2)cc1 (some centres unmarked)    zone 1
COc1cc(OCC2CC2)cnc1N1CCC(Oc2ccc([C@H](C)NC(C)=O)cc2)C1 (some centres unmarked)    zone 2
CCCN(C)c1nc(N2CC[C@@H](Oc3ccc([C@H](C)NC(C)=O)cc3)C2)c(F)cc1F    zone 2
CC(=O)NC(C)Cc1ccc(C#Cc2ccnc(Oc3cncnc3)c2)cc1 (centres unmarked)    zone 2
CC(CO)NC(=O)C(C)c1ccc(O[C@@H]2CCN(c3ncnc(OCC(C)(F)F)c3F)C2)cc1 (some centres unmarked)    zone 3
C=C(C)CNC(=O)C(C)c1ccc(O[C@@H]2CCN(c3ncnc(OCC(C)(F)F)c3F)C2)cc1 (some centres unmarked)    zone 2
C[C@H](NC(=O)c1ccns1)c1ccc(O[C@@H]2CCN(c3ccc(OCC4CC4)cc3)C2)cc1    zone 1
CC(=O)NC(C)Cc1ccc(C#Cc2ccc(OCc3cc(C)on3)cc2)cc1 (centres unmarked)    zone 3
Cc1ccc(-c2ccc(Cl)cc2)cc1C1C(=O)N2CCOCCN2C1=O    zone 3
C[C@H](NC(=O)C(C)(F)F)c1ccc(OC2CCN(c3cccc(C(F)(F)F)n3)C2)cc1 (some centres unmarked)    zone 1
CC(=O)NC(C)Cc1ccc(C#Cc2ccnc(N3CCCCC3)n2)cc1 (centres unmarked)    zone 2
CC(C)Oc1cc(N2CCC(Oc3ccc([C@H](C)NC(=O)C(C)(F)F)cc3)C2)ccn1 (some centres unmarked)    zone 1
CSc1nccc(C#Cc2ccc(CC(C)NC(C)=O)cc2)n1 (centres unmarked)    zone 3
CC(Cc1ccc(C#Cc2ccc(OC3CCC3)cc2)cc1)NC(=O)C1CC1 (centres unmarked)    zone 3
COC1CCCN(c2cccc(N3CC[C@@H](Oc4ccc([C@H](C)NC(C)=O)cc4)C3)n2)C1 (some centres unmarked)    zone 2
COC1CCC2(CC1)OC(=O)C(c1cc(-c3ccc(Cl)cc3)ccc1C)=C2O (centres unmarked)    zone 3
CCC(=O)N[C@@H](C)c1ccc(C2CN(c3ccc(OCC4CC4)cc3)C2)cc1    zone 3
CC(=O)N[C@@H](C)c1ccc(C#Cc2cnc(NC3CCC3)nc2)cc1    zone 3
CC(C)Oc1cc(N2CCC(Oc3ccc([C@H](C)NC(=O)c4ccon4)cc3)C2)ccn1 (some centres unmarked)    zone 2
CC(C)Oc1cc(N2CCC(Oc3ccc([C@H](C)NC(=O)c4cnn(C)c4)cc3)C2)ccn1 (some centres unmarked)    zone 1
CC(C)COc1cc(N2CC[C@@H](Oc3ccc([C@H](C)NC(=O)C4CC4)cc3)C2)ccn1    zone 1
CC(=O)NC(C)Cc1ccc(C#Cc2cnc(N3Cc4ccccc4C3)nc2)cc1 (centres unmarked)    zone 3
CCOc1ccc(C#Cc2ccc(C(C)C(=O)Nc3cccnc3)cc2)cc1 (centres unmarked)    zone 1
CCOc1ccc(C#Cc2ccc(CC(C)NC(=O)c3c(C)noc3N)cc2)cc1 (centres unmarked)    zone 3
